Hello, the source for this data is patent US6730503B1, in case you need it.

Test system: Enzyme A″
Assay: Effect of metals and inhibitors on enzyme activity, PMS-DCIP assay
Format: biochemical, G. oxydans DSM No. 4025
Conditions: 5 mM compound, 30 minutes at 25° C.; substrate L-Sorbose; relative to blank incubation
Parameter: Relative remaining activity

> print(dat)
        smiles.string                    parameter  reading
1        [Cl][Cu][Cl]  Relative remaining activity      0.0
2  [Cl-].[Cl-].[Zn+2]  Relative remaining activity     19.2
3  [Ca+2].[Cl-].[Cl-]  Relative remaining activity    123.0

* * *

System: Enzyme A′
Assay: Effect of metals and inhibitors on enzyme activity, PMS-DCIP assay
Format: biochemical, G. oxydans DSM No. 4025
Details: 5 mM compound, 30 minutes at 25° C.; substrate n-Propanol; relative to blank incubation
Parameter: Relative remaining activity

> print(dat)
                           molecule  reading
1  O=S(=O)([O-])[O-].[Ni+2] [NiSO4]     59.7
2              [Cl][Mn][Cl] [MmCl2]     45.7
3              [Cl][Fe][Cl] [FeCl2]      0.0
4        [Cl][Fe]([Cl])[Cl] [FeCl3]      0.0
5        [Cl-].[Cl-].[Mg+2] [MgCl2]     85.3
6        [Ca+2].[Cl-].[Cl-] [CaCl2]     95.3
